# Study Target: Thromboxane A2 receptor (Homo sapiens, UniProt P21731); note: assay procedure not described here
# Sequence (P21731 whole entry): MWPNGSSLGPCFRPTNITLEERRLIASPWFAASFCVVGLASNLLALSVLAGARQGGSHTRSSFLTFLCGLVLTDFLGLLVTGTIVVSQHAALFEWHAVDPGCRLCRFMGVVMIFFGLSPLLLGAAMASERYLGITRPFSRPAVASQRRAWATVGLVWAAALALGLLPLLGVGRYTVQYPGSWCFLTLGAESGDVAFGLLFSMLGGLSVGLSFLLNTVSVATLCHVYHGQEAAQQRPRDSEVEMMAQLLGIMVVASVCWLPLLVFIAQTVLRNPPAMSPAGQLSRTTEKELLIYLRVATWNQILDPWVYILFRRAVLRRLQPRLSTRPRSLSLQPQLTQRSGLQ
Assignment: determine reported AC50 for the given compounds.

Query for Thromboxane A2 receptor (Homo sapiens, UniProt P21731): what AC50 does the record show for COc1c(O[C@@H]2O[C@H](CO)[C@@H](O)[C@H](O)[C@H]2O)cc2c(c1OC)-c1ccc(SC)c(=O)cc1[C@@H](NC(C)=O)CC2 [THIOCOLCHICOSIDE] ?
> 30 µM

API: value(readout= AC50, system= Thromboxane A2 receptor (Homo sapiens, UniProt P21731), query= CC(=O)OCC[N+](C)(C)C [ACETYLCHOLINE] ); note: assay procedure not described here
> 30 µM

Any idea what AC50 came out for CCC(C)(Oc1ccc(C2(c3ccc(OC(C)(CC)C(=O)O)cc3)CCCCC2)cc1)C(=O)O (configuration not stated) [CLINOFIBRATE] on Thromboxane A2 receptor (Homo sapiens, UniProt P21731)?
> 30 µM

Quick check: AC50 on Thromboxane A2 receptor (Homo sapiens, UniProt P21731), item C[C@]1(COc2ccc(N3CCC(Oc4ccc(OC(F)(F)F)cc4)CC3)cc2)Cn2cc([N+](=O)[O-])nc2O1 ?
> 30 µM

Look up AC50 with Thromboxane A2 receptor (Homo sapiens, UniProt P21731) for this compound: C=CC(N)CCC(=O)O (configuration not stated) [VIGABATRIN]
> 10 µM

Lab note: need AC50 with Thromboxane A2 receptor (Homo sapiens, UniProt P21731) for entry CC(C)c1cc2c(cc1S(=O)(=O)O)[C@@]1(C)CCC[C@@](C)(C(=O)O)[C@@H]1CC2 [ECABET] , please look it up.
> 30 µM

Record lookup: for Thromboxane A2 receptor (Homo sapiens, UniProt P21731), what AC50 belongs to COC(=O)[C@H](c1ccccc1Cl)N1CCc2sccc2C1 [CLOPIDOGREL] ?
> 30 µM

Form entry - test system: Thromboxane A2 receptor (Homo sapiens, UniProt P21731); read-out: AC50; compound: Nc1nc(F)nc2c1ncn2[C@@H]1O[C@H](COP(=O)(O)O)[C@@H](O)[C@@H]1O [FLUDARABINE PHOSPHATE]; note: assay procedure not described here
> 30 µM

Hi! What's the reported AC50 for Cc1cc2nc3c(=O)[nH]c(=O)nc-3n(C[C@H](O)[C@H](O)[C@H](O)COP(=O)(O)O)c2cc1C [RIBOFLAVIN 5'-PHOSPHATE] on Thromboxane A2 receptor (Homo sapiens, UniProt P21731)?
> 30 µM

What AC50 appears in the records for this compound with Thromboxane A2 receptor (Homo sapiens, UniProt P21731)? CN1[C@@H]2CC[C@H]1C[C@@H](OC(=O)c1c[nH]c3ccccc13)C2 [TROPISETRON]
> 30 µM

Can you look up AC50 on Thromboxane A2 receptor (Homo sapiens, UniProt P21731) for COc1ccc2c(c1)[C@]13CCCC[C@@H]1[C@H](C2)N(C)CC3 [DEXTROMETHORPHAN] ?
> 30 µM

# query: AC50 | item CCCC(C)(COC(N)=O)COC(=O)NC(C)C (configuration not stated) [CARISOPRODOL] | system: Thromboxane A2 receptor (Homo sapiens, UniProt P21731); note: assay procedure not described here
> 30 µM

Lab note: need AC50 for CN(C)C(=O)Oc1cc(OC(=O)N(C)C)cc(C(O)CNC(C)(C)C)c1 (configuration not stated) [BAMBUTEROL] on Thromboxane A2 receptor (Homo sapiens, UniProt P21731), anyone have it?
> 30 µM

Give Thromboxane A2 receptor (Homo sapiens, UniProt P21731) AC50 for N#C[C@@H]1CCCN1C(=O)CNC12CC3CC(CC(O)(C3)C1)C2 [VILDAGLIPTIN]
> 30 µM

Hello, I am looking for reported AC50 with Thromboxane A2 receptor (Homo sapiens, UniProt P21731) for COc1cccc(N(C)C(=S)Oc2ccc3c(c2)CCCC3)n1 [LIRANAFTATE] . Could you help?
> 30 µM

Which measured AC50 belongs to Nc1ccc(C(=O)O)c(O)c1 [AMINOSALICYLIC ACID] , tested on Thromboxane A2 receptor (Homo sapiens, UniProt P21731)?; note: assay procedure not described here
> 30 µM

Enter reported AC50 observed with Thromboxane A2 receptor (Homo sapiens, UniProt P21731) for O=C(O)c1cc(O)c2c3nc4ccccc4oc-3cc(=O)c2n1 [PIRENOXINE]
> 30 µM

====

# Study Target: Gamma-aminobutyric acid receptor subunit alpha-1 (Rattus norvegicus, UniProt P62813); note: assay procedure not described here
# Sequence (P62813 whole entry): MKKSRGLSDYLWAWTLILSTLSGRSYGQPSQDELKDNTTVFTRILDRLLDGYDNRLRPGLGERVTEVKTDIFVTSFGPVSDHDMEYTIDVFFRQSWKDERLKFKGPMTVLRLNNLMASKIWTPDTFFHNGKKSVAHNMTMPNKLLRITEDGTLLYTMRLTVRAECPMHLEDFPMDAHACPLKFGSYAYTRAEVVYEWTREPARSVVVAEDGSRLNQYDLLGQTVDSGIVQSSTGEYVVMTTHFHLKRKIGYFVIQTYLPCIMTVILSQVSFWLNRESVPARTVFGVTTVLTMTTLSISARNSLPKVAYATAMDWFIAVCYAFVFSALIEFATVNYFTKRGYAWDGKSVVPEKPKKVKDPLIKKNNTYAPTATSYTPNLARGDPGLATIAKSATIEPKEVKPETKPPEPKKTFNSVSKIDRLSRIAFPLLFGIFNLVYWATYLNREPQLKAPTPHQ
# Format: functional
Please provide measured AC50 for the entries that follow.

Entry under review: CC(CCc1ccccc1)NC(C)C(O)c1ccc(O)cc1 (centres undefined) [NYLIDRIN] . Reported AC50?
> 10 µM

Dear colleague, I am looking for the recorded AC50 of the following molecule: CC1(C)S[C@@H]2[C@H](NC(=O)[C@H](N)c3ccc(O)cc3)C(=O)N2[C@H]1C(=O)O [AMOXICILLIN]
> 30 µM

Quick one: AC50 of N#Cc1ccccc1-c1cc(-c2ccccn2)cn(-c2ccccc2)c1=O ?
> 30 µM

Requested read-out: AC50. Entry: Clc1ccc2c(c1)C(c1ccccc1)=NCc1nncn1-2 [ESTAZOLAM]
0.0336 µM

Quick one: AC50 for O=C1CN=C(c2ccccc2)c2cc(Cl)ccc2N1 [NORDAZEPAM] ?
0.049 µM

Recorded AC50 for Cc1ccc(NC(=O)C2(c3ccc4c(c3)OC(F)(F)O4)CC2)nc1-c1cccc(C(=O)O)c1 [LUMACAFTOR] , please?
> 30 µM

Entry CC(=O)Nc1c(I)c(C(=O)N[C@H]2C(O)O[C@H](CO)[C@@H](O)[C@@H]2O)c(I)c(N(C)C(C)=O)c1I (some centres undefined) [METRIZAMIDE] has what AC50?
> 10 µM

Suppose we examine the molecule CO[C@@]1(NC(=O)Cc2cccs2)C(=O)N2C(C(=O)O)=C(COC(N)=O)CS[C@@H]21 [CEFOXITIN] ; what AC50 value has been reported?
> 30 µM

Fill blank: measured AC50 of the molecule N=C(N)NCCCCCCC(=O)NC(O)C(=O)NCCCCNCCCN (centres undefined) is ____.
> 30 µM

====

AC50 values recorded for Vasopressin V2 receptor (Homo sapiens, UniProt P30518)

Give the measured AC50 of Cc1ccc2c(-c3ccccc3)nc(=O)n(C(C)C)c2c1 [PROQUAZONE] .
> 30 µM

Param item = CC(C)(C)NC[C@H](O)COc1nsnc1N1CCOCC1 [TIMOLOL] ; retrieve measured AC50.
> 30 µM

Please look up its AC50: CNCCCC1c2ccccc2C=Cc2ccccc21 [PROTRIPTYLINE]
> 10 µM

====

# Study Target: Histamine H2 receptor (Homo sapiens, UniProt P25021); note: assay procedure not described here
# Sequence (P25021 whole entry): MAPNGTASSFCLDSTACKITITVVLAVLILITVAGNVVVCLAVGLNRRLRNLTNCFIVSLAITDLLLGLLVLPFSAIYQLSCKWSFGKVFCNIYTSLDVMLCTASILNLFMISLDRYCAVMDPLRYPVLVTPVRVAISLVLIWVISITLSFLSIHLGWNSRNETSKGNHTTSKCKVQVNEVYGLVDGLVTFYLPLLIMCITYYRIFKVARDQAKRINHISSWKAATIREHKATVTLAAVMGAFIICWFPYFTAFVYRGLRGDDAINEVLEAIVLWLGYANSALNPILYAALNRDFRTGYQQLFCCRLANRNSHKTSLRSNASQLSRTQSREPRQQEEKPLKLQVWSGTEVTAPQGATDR
Provide the recorded AC50 for the entries that follow.

Suppose we examine the molecule N#C[C@@H]1CCCN1C(=O)CNC12CC3CC(CC(O)(C3)C1)C2 [VILDAGLIPTIN] ; what AC50 value has been reported?
> 10 µM

Data request, read-out AC50, for COc1ccnc(C[S+]([O-])c2nc3ccc(OC(F)F)cc3[nH]2)c1OC (configuration not stated) [PANTOPRAZOLE]
> 10 µM

What measured AC50 goes with CC#CCn1c(N2CCC[C@@H](N)C2)nc2c1c(=O)n(Cc1nc(C)c3ccccc3n1)c(=O)n2C [LINAGLIPTIN] ?
12.3 µM

Using the record for C[C@]1(COc2ccc(N3CCC(Oc4ccc(OC(F)(F)F)cc4)CC3)cc2)Cn2cc([N+](=O)[O-])nc2O1 , report its AC50.
> 10 µM

GET /values?readout=AC50&item= CC(C)CC(N(C)C)C1(c2ccc(Cl)cc2)CCC1 (configuration not stated) [SIBUTRAMINE]
> 10 µM

Could you tell me which AC50 is on file for CCn1cc(C(=O)O)c(=O)c2cc(F)c(N3CCNCC3)nc21 [ENOXACIN] ?
> 10 µM

Field request: AC50 | item: C[C@H]1C[C@H]2[C@@H]3CCC4=CC(=O)C=C[C@]4(C)[C@@]3(Cl)[C@@H](O)C[C@]2(C)[C@@]1(O)C(=O)CO [BECLOMETHASONE]
> 10 µM

May I ask what AC50 has been recorded for CCCCNc1ccc(C(=O)OCCN(C)C)cc1 [TETRACAINE] ?
4.08 µM

Which AC50 value belongs to CCCN(CCC)CCc1cccc2c1CC(=O)N2 [ROPINIROLE] ?
> 10 µM

Would you kindly share the measured AC50 for O=C(Nc1nc(-c2cc(Cl)cs2)c(N2CCN(C3CCCCC3)CC2)s1)c1cnc(N2CCC(C(=O)O)CC2)c(Cl)c1 [AVATROMBOPAG] ?
> 10 µM

Could you tell me which AC50 is on file for Cc1cnc(NC(=O)C2=C(O)c3ccccc3S(=O)(=O)N2C)s1 [MELOXICAM] ?
> 10 µM

Item CN1C[C@H](C(=O)N[C@]2(C)O[C@@]3(O)[C@@H]4CCCN4C(=O)[C@H](Cc4ccccc4)N3C2=O)C[C@@H]2c3cccc4[nH]cc(c34)C[C@H]21 [DIHYDROERGOTAMINE] has what recorded AC50?
0.257 µM

Record request: AC50 value, item COC1=C(OC)C(=O)C(CCCCCCCCCCO)=C(C)C1=O [IDEBENONE]
> 10 µM

Entry COC(=O)[C@H](c1ccccc1Cl)N1CCc2sccc2C1 [CLOPIDOGREL] has what AC50?
> 10 µM

Need AC50, item O=C1CN=C(c2ccccc2)c2cc(Cl)ccc2N1 [NORDAZEPAM]
> 10 µM

Reported AC50, molecule [H]/N=C(/N)N[C@H]1[C@H](O)[C@@H](O)[C@H](O[C@@H]2O[C@@H](C)[C@](O)(C=O)[C@H]2O[C@@H]2O[C@@H](CO)[C@H](O)[C@@H](O)[C@@H]2NC)[C@@H](N/C(N)=N\[H])[C@@H]1O [STREPTOMYCIN] : ____
> 10 µM

# query: AC50 of entry CC(CCc1ccccc1)NC(C)C(O)c1ccc(O)cc1 (configuration not stated) [NYLIDRIN]
> 10 µM

Data provenance is ChEMBL document CHEMBL5291721.
